- target or system: Orexin/Hypocretin receptor type 1 (Homo sapiens) (UniProt O43613)
- Sequence (O43613 whole entry, looked up): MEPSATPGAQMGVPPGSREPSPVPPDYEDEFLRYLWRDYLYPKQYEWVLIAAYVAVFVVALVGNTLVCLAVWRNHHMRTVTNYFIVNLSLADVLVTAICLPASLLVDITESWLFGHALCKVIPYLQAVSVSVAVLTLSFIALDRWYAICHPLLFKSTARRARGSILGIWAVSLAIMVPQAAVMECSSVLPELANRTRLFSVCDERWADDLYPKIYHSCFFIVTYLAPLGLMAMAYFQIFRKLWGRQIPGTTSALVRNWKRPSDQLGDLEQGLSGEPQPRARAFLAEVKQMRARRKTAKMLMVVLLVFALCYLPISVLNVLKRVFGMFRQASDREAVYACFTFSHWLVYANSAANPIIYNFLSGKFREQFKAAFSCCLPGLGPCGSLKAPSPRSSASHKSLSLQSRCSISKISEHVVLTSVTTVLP
- assay explanation: antagonists of human orexin 1 receptor (OX1R) (AID 485270)
- measurement context: OX1R-expressing cells, FRET antagonist read-out; at 6.6 µM
About 5,800 (1.8%) of roughly 330,000 compounds were called active. Rule as the data show it: active = inhibition mostly above about 38% (no sharp cut-off); inactive = mostly below about 40%. This is one part of a sample in which actives are shown more often than they occur.
Write down one outcome, taken from active, inactive

## Task Tell me the assay call for CCOC(=O)Cc1ncccc1C(=O)Nc1ccc(OC)cc1 please.
## Result inactive

## Task Tell me the assay call for O=C1[C@@H](c2ccccc2)[C@@H](c2ccccc2)N1c1cccnc1 please.
## Result inactive

## Task Tell me the assay call for Cc1ccc(-c2noc(CSc3nnc(-c4ccccc4)n3C)n2)cc1 please.
## Result inactive

## Task Tell me the assay call for O=C(CSc1nccn1-c1cccc(F)c1)NC1CCCC1 please.
## Result inactive

## Task Tell me the assay call for CC(=O)Nc1ccc(S(=O)(=O)NCCC(=O)N2CCN(c3ccccc3Cl)CC2)cc1 please.
## Result inactive

## Task Tell me the assay call for N#Cc1c(NCCO)ccc([N+](=O)[O-])c1NCCO please.
## Result active

## Task Tell me the assay call for CCSc1nsc(NC(=O)Nc2ccccc2OC)n1 please.
## Result inactive

## Task Tell me the assay call for CCCc1cc(=O)[nH]c(SCC(=O)Nc2ccc(C(=O)Nc3ccccc3OC)cc2)n1 please.
## Result inactive

## Task Tell me the assay call for CC(=O)Oc1ccccc1C(=O)Nc1ncc([N+](=O)[O-])s1 please.
## Result active

## Task Tell me the assay call for CC[C@@]1(C(=O)OC)N[C@H](CN(C)C(C)=O)[C@@H]2C(=O)N(C)C(=O)[C@@H]21 please.
## Result inactive

## Task Tell me the assay call for COc1ccc(NC(=O)c2ccccc2[N+](=O)[O-])cc1OC please.
## Result inactive

## Task Tell me the assay call for O=C(NCCNc1ccccc1[N+](=O)[O-])c1ccccc1F please.
## Result inactive

## Task Tell me the assay call for COc1ccc(C(=O)COC(=O)CN2C(=O)C3CC=CCC3C2=O)c(OC)c1 (configuration not stated) please.
## Result inactive

## Task Tell me the assay call for COc1ccc(NC(=O)C2CCCN(S(=O)(=O)c3cccc4cccnc34)C2)cc1 (configuration not stated) please.
## Result inactive

## Task Tell me the assay call for CC(=O)C(CC(=O)N1CCCC1)C(=O)Nc1ccc(Cl)cc1 (configuration not stated) please.
## Result inactive

## Task Tell me the assay call for CC(=NNC(=O)c1ccc2nc[nH]c2c1)c1ccc(Br)cc1 please.
## Result inactive

## Task Tell me the assay call for O=C(Nc1cccc2cccnc12)c1cccc(N2C(=O)CCC2=O)c1 please.
## Result active

## Task Tell me the assay call for O=C(CN1C(=O)S/C(=C\c2ccccc2F)C1=O)NCCCn1ccnc1 please.
## Result inactive

## Task Tell me the assay call for C=CCC[C@H](Cc1ccc(F)cc1)C(=O)OC[C@@H](NC(=O)[C@@H](CC=C)CC(=O)N[C@H](CO)Cc1ccccc1)C(C)(C)C please.
## Result inactive

## Task Tell me the assay call for COc1ccccc1-c1nnc(-c2ccc(F)cc2)o1 please.
## Result inactive

## Task Tell me the assay call for COc1ccc([N+](=O)[O-])cc1NC(=O)CCc1ccccc1 please.
## Result inactive

## Task Tell me the assay call for O=C(Cc1c(F)cccc1Cl)Nc1ccc(-n2cnnn2)cc1 please.
## Result inactive

## Task Tell me the assay call for CCC(=O)N(Cc1cc2cc(OC)ccc2[nH]c1=O)c1ccccc1C please.
## Result inactive

## Task Tell me the assay call for COc1ccccc1NC(=O)CN(c1ccccc1OC)S(=O)(=O)c1ccccc1 please.
## Result active

## Task Tell me the assay call for O=C(Cn1cnc2c(OCc3ccccc3)ncnc21)NCc1nc2ccccc2[nH]1 please.
## Result inactive

## Task Tell me the assay call for COc1ccc(NC(=O)CNc2cc(S(=O)(=O)N3CCOCC3)ccc2N2CCOCC2)c(OC)c1 please.
## Result inactive

## Task Tell me the assay call for O=C(CCc1ccccc1)Nc1ncc([N+](=O)[O-])s1 please.
## Result active
